Test system: purified secondary alcohol dehydrogenase (SADH)
Test: substrate specificity and Michaelis constants of purified SADH
Assay type: biochemical, Pseudomonas sp. ATCC 21439
VALUE_KIND: oxidation by purified SADH

Quick one: oxidation by purified SADH for CCCCC(C)O (stereo not drawn) ?
lower rate

Similarly, CCC(C)O (stereo not drawn) ?
highest

Input CCC=O
lower rate

Same thing, different compound: CC(O)CCO (stereo not drawn)
lower rate

# repeat for CCC(O)CO (stereo not drawn)
not oxidized

Repeat with CCCC(C)O (stereo not drawn)
lower rate

Also C=O , if possible.
not oxidized

Another: Oc1ccccc1
not oxidized

Ok, now CC(C)CO
not oxidized

Same thing, different compound: CC(C)O
highest

Now for a further compound.
Need oxidation by purified SADH, item OC1CCCCC1
lower rate
